# ΔTm per entry
assayed.system: Cyclin-dependent kinase 2 (Homo sapiens, UniProt P24941)
readout.type: ΔTm

molecule | result
C[S+]([O-])c1ccc(-c2nc(-c3ccc(F)cc3)c(-c3ccncc3)[nH]2)cc1 (stereo not given) | -0.1 °C
O=C1c2ccccc2-c2n[nH]c3cccc1c23 | 2.6 °C
COc1cc2ncnc(Nc3ccc(F)c(Cl)c3)c2cc1OCCCN1CCOCC1 | 0 °C
COc1cc(C[C@H]2C(=O)OC[C@@H]2Cc2ccc(OC)c(OC)c2)ccc1O | 0.6 °C
CCOc1ccc(/C=C2/SC(=O)N(CCN)C2=O)cc1 | -0.1 °C
O=C(O)c1cc(NCc2cc(O)ccc2O)ccc1O | 0.4 °C
Cl.Cn1cc(C2=C(c3ccc4cc5n(c4c3)CCC(CN)C5)C(=O)NC2=O)c2ccccc21 (stereo not given) | 2.4 °C
O=C(O)Cc1ccc(O)c([N+](=O)[O-])c1 | 1.1 °C
N#CC(C#N)=Cc1ccc(O)c(O)c1 | 1.1 °C
O=C1Cc2c([nH]c3ccc(Br)cc23)-c2ccccc2N1 | 3.6 °C
Oc1ccc(-c2nc(-c3ccc(F)cc3)c(-c3ccncc3)[nH]2)cc1 | 0.4 °C
COc1cc(/C=C/C(=O)CC(=O)/C=C/c2ccc(O)c(OC)c2)ccc1O | 1.9 °C
O=C(O)c1cc(N(Cc2ccccc2O)Cc2cc(O)ccc2O)ccc1O | 1.3 °C
CCCCc1c(-c2ccc(O)cc2)[nH]c2nccnc12 | 4.7 °C
Cc1nc(Nc2ncc(C(=O)Nc3c(C)cccc3Cl)s2)cc(N2CCN(CCO)CC2)n1 | 0.2 °C
